Record form. Attribute: solubility at 24 h. Fill in for each entry.
# Method notes: Solubility measurement (DMSO solution method), McIlvaine buffer pH 4.5 or 6.8
# Format: physicochemical
# Condition parameters: aqueous buffer, kinetic from dmso stock; McIlvaine buffer pH 6.8; DMSO stock diluted to 250 μM; 24 h shaking at ambient temperature; read-out: solubility pH 6.8
One number for each entry, in µg/mL.

Check out these entries, answers already filled in.
C[C@H](Oc1cc(-c2ccncc2)nc(-c2noc3c2CCC[C@@]32CCCc3sc(N)c(C#N)c32)n1)[C@@H]1CCCN1C [II-78]: 3
C[C@H](Oc1cc(C2CCCO2)nc(-c2noc3c2CCC[C@@]32CCCc3sc(N)c(C#N)c32)n1)[C@@H]1CCCN1C (stereo partly drawn) [II-44]: 104
CC(C)N1CCCN(c2cc(-n3ccnc3)nc(-c3noc4c3CCC[C@@]43CCCc4sc(N)c(C#N)c43)n2)[C@@H](C)C1 [II-169]: 13

Now examine the next entry.
Task: I'd like to know its solubility at 24 h. The compound in question is C[C@H](Oc1cc(-n2cc3ccn([C@H]4CCOC4)c(=O)c3n2)nc(-c2noc3c2CCC[C@@]32CCCc3sc(N)c(C#N)c32)n1)[C@@H]1CCCN1C [II-202]
Result: 58

###

Record form. Attribute: IC50. Fill in for each entry.
# Test system: SAS cells
# Method notes: SAS CTG proliferation assay (120 h) (HNSCC, wt amplified)
# Assay type: cell-based
Numbers only, in nM.

C[C@H](Oc1cc(-c2ccn(C)n2)nc(-c2noc3c2CCC[C@@]32CCCc3sc(N)c(C#N)c32)n1)[C@@H]1C[C@@H](F)CN1C [II-27]: 151
C[C@H](Oc1cc(N2CCN(CCO)CC2)nc(-c2noc3c2CCC[C@@]32CCCc3sc(N)c(C#N)c32)n1)[C@@H]1CCCN1C [II-8]: 534
C[C@H](Oc1cc(-c2ccn(C)n2)nc(-c2noc3c2CCC[C@@]32CCCc3sc(N)c(C#N)c32)n1)[C@@H]1CCCN1C [II-96]: 148
C[C@H]1CN(C)CCCN1c1cc(N2CC[C@H](N(C)C)C2)nc(-c2noc3c2CCC[C@@]32CCCc3sc(N)c(C#N)c32)n1 [II-16]: 3870
CC(C)N1CCCN(c2cc(-c3ccn(C)n3)nc(-c3noc4c3CCC[C@@]43CCCc4sc(N)c(C#N)c43)n2)[C@@H](C)C1 [II-170]: 1050

Now examine the next entry.
Task: I'd like to know its IC50. The compound in question is C[C@H](Oc1cc(N2CCN(C)C3(COC3)C2)nc(-c2noc3c2CCC[C@@]32CCCc3sc(N)c(C#N)c32)n1)[C@@H]1C[C@@H](F)CN1C [II-148]
Result: 421

###

Record form. Attribute: Papp A→B at 90 min, 10 μM. Fill in for each entry.
# Method notes: Caco-2 assay (permeability PappAB, PappBA, efflux ratio)
# Format: in vitro ADME
# Condition parameters: human, Caco-2; apical to basolateral; 10 μM test compound, pH 7.4

Check out these entries, answers already filled in.
C[C@H](Oc1cc(-n2cnc(C(=O)N(C)C)c2)nc(-c2noc3c2CCC[C@@]32CCCc3sc(N)c(C#N)c32)n1)[C@@H]1CCCN1C: 2 ×10⁻⁶ cm/s
C[C@H](Oc1cc(N2CCNC3(COC3)C2)nc(-c2noc3c2CCC[C@@]32CCCc3sc(N)c(C#N)c32)n1)[C@@H]1CCCN1C: < 0.1 ×10⁻⁶ cm/s

Task: I'd like to know its Papp A→B at 90 min, 10 μM. The molecule in question is C[C@H](Oc1cc(N2CC[C@H](N(C)C)C2)nc(-c2onc3c2CCC[C@@]32CCCc3sc(N)c(C#N)c32)n1)[C@@H]1CCCN1C
Result: < 4.1 ×10⁻⁶ cm/s
